Entry source: patent US9289430B2

The entries below are paired with their reported IC50.
Biological target: rat NaP2b (SLC34A2) (Rattus norvegicus)
Construct: host or cells: HEK293
Test: NaP2b-mediated Pi transport: 33P phosphate uptake into transfected HEK293 cells
Format: cell-based
Details: 100 uM KH2PO4, PiT-silencing agent, read-out: pIC50 range for rat Nap2b (converted)

molecule	tested_system	IC50
CCN(CC)CCN(C)Cc1ccc(C(=O)Nc2ccc(N3CCCCC3)cc2C(=O)Nc2ccn(-c3cccc(C(F)(F)F)c3)n2)cc1 [Example 9]	rat NaP2b (SLC34A2) (Rattus norvegicus)	10 to 31.6 µM
O=C(O)CCOCCOCCOCCNC(=O)Cc1cccc(SCc2cccc(C(=O)Nc3ccc(N4CCCCC4)cc3C(=O)Nc3ccn(-c4cccc(C(F)(F)F)c4)n3)c2)c1 [Example 26]	rat NaP2b (SLC34A2) (Rattus norvegicus)	< 1 µM
COCCNC(=O)CCN(C)Cc1cccc(C(=O)Nc2ccc(N3CCCCC3)cc2C(=O)Nc2ccn(-c3cccc(C(F)(F)F)c3)n2)c1 [Example 16]	rat NaP2b (SLC34A2) (Rattus norvegicus)	1 to 7.94 µM
O=C(O)CCSCc1cccc(C(=O)Nc2ccc(N3CCCCC3)cc2C(=O)Nc2ccn(-c3cccc(C(F)(F)F)c3)n2)c1 [Example 7]	rat NaP2b (SLC34A2) (Rattus norvegicus)	1 to 7.94 µM
CN(CCOCCOCCOCCC(=O)O)Cc1cccc(C(=O)Nc2ccc(N3CCCCC3)cc2C(=O)Nc2ccn(-c3cccc(C(F)(F)F)c3)n2)c1 [Example 17]	rat NaP2b (SLC34A2) (Rattus norvegicus)	1 to 7.94 µM

Shift focus to the following entry.
Asked: Can you look up the measured IC50 of Cc1ccc(-n2ccc(NC(=O)c3cc(N4CCCCC4)ccc3NC(=O)c3cccc(CSCCC(=O)O)c3)n2)cc1C [Example 5] for me?
Given back: 1 to 7.94 µM

----------
Molecular target: rat NaP2b (SLC34A2) (Rattus norvegicus, UniProt Q9JJ09)
Construct: host or cells: HEK293
Sequence (Q9JJ09 1-695): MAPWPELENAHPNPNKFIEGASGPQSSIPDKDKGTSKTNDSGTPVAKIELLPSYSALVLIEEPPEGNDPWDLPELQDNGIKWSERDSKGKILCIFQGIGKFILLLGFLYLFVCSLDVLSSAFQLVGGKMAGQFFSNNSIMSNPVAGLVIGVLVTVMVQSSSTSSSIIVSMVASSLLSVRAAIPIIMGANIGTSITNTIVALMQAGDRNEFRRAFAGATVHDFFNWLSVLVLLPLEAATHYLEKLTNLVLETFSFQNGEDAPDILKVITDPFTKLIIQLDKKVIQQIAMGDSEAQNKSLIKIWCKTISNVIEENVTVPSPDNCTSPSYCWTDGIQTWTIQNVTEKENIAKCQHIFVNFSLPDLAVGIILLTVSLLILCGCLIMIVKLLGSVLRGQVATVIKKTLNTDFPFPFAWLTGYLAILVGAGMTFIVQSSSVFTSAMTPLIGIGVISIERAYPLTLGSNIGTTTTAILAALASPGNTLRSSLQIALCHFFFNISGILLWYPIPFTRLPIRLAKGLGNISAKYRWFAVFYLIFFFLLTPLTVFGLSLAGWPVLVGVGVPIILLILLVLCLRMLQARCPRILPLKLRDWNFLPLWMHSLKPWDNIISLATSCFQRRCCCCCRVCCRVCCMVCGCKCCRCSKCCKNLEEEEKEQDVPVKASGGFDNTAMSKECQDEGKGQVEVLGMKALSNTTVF
Assay: NaP2b-mediated Pi transport: 33P phosphate uptake into transfected HEK293 cells
Format: cell-based
Settings: 100 uM KH2PO4, PiT-silencing agent, read-out: pIC50 range for rat Nap2b (converted)
measurement_kind: IC50

Examples with answers:
molecule	endpoint_result
O=C(O)c1ccc(SCc2cccc(C(=O)Nc3ccc(N4CCCCC4)cc3C(=O)Nc3ccn(-c4cccc(C(F)(F)F)c4)n3)c2)cc1	1000 to 7940 nM
CN(CCN1CCOCC1)C(=O)c1cccc(C(=O)Nc2ccc(Cl)cc2C(=O)Nc2ccn(-c3cccc(C(F)(F)F)c3)n2)c1 [Example 14, 2,2,2-trifluoroacetate]	< 1000 nM

Shift focus to the following entry.
Asked: Can you look up the measured IC50 of CN(CCN1CCOCC1)C(=O)c1cccc(C(=O)Nc2ccc(N3CCCCC3)cc2C(=O)Nc2nc(-c3cccc(C(F)(F)F)c3)n[nH]2)c1 for me?
Given back: < 1000 nM
